Experiment: Quantitative High-Throughput drug screen in 47 multiple myeloma cell lines against the NCATS MIPE library collection: MOLP8_DSMZ cell viability assay (AID 1918977); note: nearly all actives have a fitted effect of over 45% in size
Details: MOLP8 myeloma viability, CellTiter-Glo ATP luminescence, 48 h; series mostly up to 45.8 µM
Inconclusive results are not listed. Activity calls are given as the source filed them. Calls come from the whole dose curve; as a rule, active = well fitted cell-killing curve with a large enough effect; inconclusive = small, poorly fitted or top-dose-only effect, or effect the other way; inactive = no such curve, though single readings can be large or run the other way.
Thanks in advance; please answer with one of these: TRUE (active), FALSE (inactive)

Task: Entry O=NN(CCCl)C(=O)NCCCl : call = ?
Result: FALSE

Task: Can you check COc1cccc2cc(-c3nc(C4CCC(C(=O)O)CC4)n4ncnc(N)c34)[nH]c12 (stereo not given) next?
Result: TRUE

Task: Further, for CCC(C)(C)C(=O)O[C@H]1C[C@@H](C)C=C2C=C[C@H](C)[C@H](CC[C@@H]3C[C@@H](O)CC(=O)O3)[C@H]21 ?
Result: TRUE

Task: Try O=C(O)COCCN1CCN(C(c2ccccc2)c2ccc(Cl)cc2)CC1 (stereo not given) next.
Result: FALSE

Task: Follow-up item: Nc1ccc(S(=O)(=O)Nc2ccnn2-c2ccccc2)cc1
Result: FALSE

----------
Assay: qHTS Screen of the MIPE 4.0 Collection Against Ewings Sarcoma (TC71) (AID 1259253); note: nearly all actives have a fitted effect of over 40% in size
Conditions: TC71 Ewing sarcoma viability, CellTiter-Glo, 48 h; series mostly up to 45.8 µM
Protocol: There is a large unmet medical need for treatments for Ewing sarcoma, a pediatric sarcoma. […] Using the NCATS developed oncology compound library called the Mechanism of Interrogation Plate (MIPE), four Ewing sarcoma cell lines were evaluated (TC32, TC71, RDES, EW8). Compounds, in a 12-point titration series, were incubated with cells for 48 hours and the read out was cell viability (CellTiter-Glo from Promega). […]
Inconclusive results are not listed. Activity calls are given as the source filed them. Calls follow the shape of the dose curve; as a rule, active = well fitted inhibition curve with a large enough effect; inconclusive = small, poorly fitted or top-dose-only effect; inactive = no such curve, though single readings can be large or run the other way.
Choose the fitting class; nothing outside YES (active), NO (inactive) is accepted.

Task: Write down the call the test reported for this molecule. Item: O=C1[C@H](Cc2ccc(O)cc2)N2C(=O)CCN(C(=O)NCc3ccccc3)[C@H]2CN1Cc1cccc2ccccc12
Result: YES

Task: Do the same for COCCNCCCn1c(C(=O)CF)c(-c2ccc(C)cc2)c2c(N)ncnc21 please
Result: YES

Task: Same for CCCS(=O)(=O)Nc1ccc(F)c(C(=O)c2c[nH]c3ncc(-c4ccc(Cl)cc4)cc23)c1F
Result: YES

Task: Same for CCCC(CCC)C(=O)O
Result: NO

Task: Now the molecule Cc1cc(-c2ccc(CC(=O)Nc3ccc(-c4cccnc4)cc3)cc2)ccn1
Result: YES

Task: Again, but for C1COC(NC(C2CC2)C2CC2)=N1
Result: NO

Task: Record: Nc1cccc(S(=O)(=O)N2CCCN(S(=O)(=O)c3ccc4c(c3)OCCO4)CC2)c1
Result: YES

Task: Field entry: COc1ccc(COc2cc3oc(=O)c4cc(C(C)O)ccc4c3cc2OC)cc1 (centres undefined)
Result: YES

Task: Now consider CCc1cc(Nc2nccc(-c3c(-c4ccc(OC)c(C(=O)Nc5c(F)cccc5F)c4)nc4ccccn34)n2)c(OC)cc1N1CCC(N2CCN(S(C)(=O)=O)CC2)CC1 and answer again.
Result: YES

----------
Test system: HaCat
Assay: Cytotoxic Profiling of Annotated Libraries Using Quantitative High-Throughput Screening (AID 1296008); note: % is set by controls: 0 for no effect and ±100 for the full control effect; nearly all actives have a fitted effect of over 60% in size
Details: Five cell lines viability, CellTiter-Glo ATP luminescence, 48-72 h; active compounds read low
Method: Cell-based phenotypic screening is a commonly used approach to discover biological pathways, novel drug targets, chemical probes and high-quality hit-to-lead molecules. […] A pintool (Kalypsys) was used to transfer 23 nL of compound solution to the 1536-well assay plates. […] Plates were left at room temperature for 10 min before imaging the ATP-coupled luminescence using a ViewLux microplate imager (PerkinElmer, Waltham, MA).
Results filed as inconclusive are left out.
Would you kindly list max response for each of these molecules?
The figure you give is taken to be in %; do not add the unit.

Task: Returns the measured max response for the input molecule. Input: c1ccc(-c2nn3c(c2-c2ccnc4cc(OCCN5CCOCC5)ccc24)CCC3)nc1
Result: -14.5

Task: Now this one: Nc1nc2ccc(OC(F)(F)F)cc2s1
Result: -58.3

Task: Queued: CN(C)C(=O)c1ccc(S(=O)(=O)c2ccc(NC(=O)[C@@](C)(O)C(F)(F)F)c(Cl)c2)cc1
Result: -8.31

Task: Check CCCCNc1cc(C(=O)O)cc(S(N)(=O)=O)c1Oc1ccccc1 too.
Result: 2.18

Task: What about this molecule? OCCn1cc(-c2cnc3nnn(Cc4ccc5ncccc5c4)c3n2)cn1
Result: -20.1

Task: How about this molecule: O=c1n(CCCN2CCN(c3cccc(Cl)c3)CC2)nc2ccccn12
Result: -8.88

Task: Please do the same for CCc1cncnc1N1CCN(Cc2nc3ccc(C(F)(F)F)cc3[nH]2)CC1 as well.
Result: -29.7

Task: // repeat for O=S(=O)(N=Cc1c(O)ccc2ccccc12)c1cccs1 and report
Result: -24.1

Task: Also, COc1ccc(CC2=NN3C([C@@H](CCc4ccccc4)[C@@H](C)O)=NC(C)C3C(=O)N2)cc1OC (stereo not given in full) please.
Result: -7.5

Task: And the next one, C[C@H](NC(=O)Cc1cc(F)cc(F)c1)C(=O)N[C@@H]1C(=O)N(C)c2ccccc2-c2ccccc21 ?
Result: -1.56
